- ASSAYED_TARGET: recombinant α-syn fibrils (Homo sapiens)
- Construct: made in house
- TEST_SUMMARY: Competition binding assay against [^3H]PiB, α-syn fibrils

| SMILES_CODE | ASSAYED_TARGET | U | Ki |
| --- | --- | --- | --- |
| FCCOCCOCCOc1cnc(-c2csc(-c3nc(-c4ccc5c(c4)OCO5)cs3)n2)nc1 | recombinant α-syn fibrils (Homo sapiens) | nM | 1.17 |
| Fc1ncc(-c2csc(-c3nc(-c4cnc5c(c4)OCO5)cs3)n2)cn1 | recombinant α-syn fibrils (Homo sapiens) | nM | 4.75 |
| Fc1ccc(-c2csc(-c3nc(-c4cnc5c(c4)OCO5)cs3)n2)cn1 | recombinant α-syn fibrils (Homo sapiens) | nM | 1.01 |
| COc1ccc(-c2csc(-c3nc(-c4cnc5c(c4)OCO5)cs3)n2)cc1OC | recombinant α-syn fibrils (Homo sapiens) | nM | 4.99 |
| COc1ccc(-c2csc(-c3nc(-c4cnc5c(c4)OCO5)cs3)n2)cc1F | recombinant α-syn fibrils (Homo sapiens) | nM | 2.56 |

###

- ASSAYED_TARGET: recombinant α-syn fibrils (Homo sapiens)
- Construct: made in house
- TEST_SUMMARY: Competition binding assay against [^3H]DCVJ, α-syn fibrils
- CONDITION_NOTES: ratio of Ki, [^3H]DCVJ was used
Mark t for reported Selectivity Aβ/α-syn of 300 or greater; mark f for anything smaller.

| COMPOUND | GROUP_LABEL |
| --- | --- |
| FCCOc1cnc(-c2csc(-c3nc(-c4cnc5c(c4)OCO5)cs3)n2)nc1 | f |
| Fc1ccc(-c2csc(-c3nc(-c4cnc5c(c4)OCO5)cs3)n2)cn1 | t |
| FCCOCCOc1cnc(-c2csc(-c3nc(-c4ccc5c(c4)OCO5)cs3)n2)nc1 | t |
| FCCOc1cnc(-c2csc(-c3nc(-c4ccc5c(c4)OCO5)cs3)n2)nc1 | f |
| COc1ccc(-c2csc(-c3nc(-c4cnc5c(c4)OCO5)cs3)n2)cc1F | t |
| COc1ccc(-c2csc(-c3nc(-c4ccc5c(c4)OCO5)cs3)n2)cc1F [d2] | f |
| Fc1ccc(-c2csc(-c3nc(-c4ccc5c(c4)OCO5)cs3)n2)cn1 | f |

###

- ASSAYED_TARGET: recombinant α-syn fibrils (Homo sapiens)
- Construct: made in house
- TEST_SUMMARY: Competition binding assay against [^3H]PiB, α-syn fibrils
- CONDITION_NOTES: ratio of Ki, [^3H]PiB was used
Below, each entry is listed with its recorded Selectivity Aβ/α-syn.
PROPERTY: Selectivity Aβ/α-syn

| COMPOUND | ASSAYED_TARGET | PROPERTY | READOUT_VALUE |
| --- | --- | --- | --- |
| FCCOc1cnc(-c2csc(-c3nc(-c4ccc5c(c4)OCO5)cs3)n2)nc1 | recombinant α-syn fibrils (Homo sapiens) | Selectivity Aβ/α-syn | 53.8 |
| COc1ccc(-c2csc(-c3nc(-c4ccc5c(c4)OCO5)cs3)n2)cc1F [d2] | recombinant α-syn fibrils (Homo sapiens) | Selectivity Aβ/α-syn | 63.4 |
| Fc1ncc(-c2csc(-c3nc(-c4cnc5c(c4)OCO5)cs3)n2)cn1 | recombinant α-syn fibrils (Homo sapiens) | Selectivity Aβ/α-syn | 45.1 |
| COc1ccc(-c2csc(-c3nc(-c4cnc5c(c4)OCO5)cs3)n2)c(OC)c1 | recombinant α-syn fibrils (Homo sapiens) | Selectivity Aβ/α-syn | 110.1 |
| FCCOCCOCCOc1ccc(-c2csc(-c3nc(-c4cnc5c(c4)OCO5)cs3)n2)cc1 | recombinant α-syn fibrils (Homo sapiens) | Selectivity Aβ/α-syn | 42.1 |
